molecular target: T1, CD3 epsilon homodimer protein (UniProt P07766 23-126); experiment: SPR Biacore T200, CD3e homodimer on chip, vs unaltered GLS3000 antibody
T1 construct: also called CD3 (CD3 epsilon)
T1 sequence (P07766 23-126): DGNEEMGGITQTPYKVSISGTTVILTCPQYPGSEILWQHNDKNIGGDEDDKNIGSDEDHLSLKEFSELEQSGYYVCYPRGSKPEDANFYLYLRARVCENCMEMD
Assay readout: ratio of amounts bound (Z=Y/X)
Answer with the value's number alone.

Binder	Assay readout	Reported
GLS3000 T92A (antibody, name in Kabat numbering, V domains shown, one-arm IgG as m2) VH: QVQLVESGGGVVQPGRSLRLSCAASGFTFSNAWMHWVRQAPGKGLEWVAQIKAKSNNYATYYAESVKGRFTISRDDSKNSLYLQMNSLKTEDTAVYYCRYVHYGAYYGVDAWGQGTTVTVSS VL: DIVMTQSPLSLPVTPGEPASISCRSSQSLVHSNRNTYLHWYQQKPGQAPRLLIYKVSNRFSGVPDRFSGSGSGTDFTLKISRVEAEDVGVYYCGQGAQVPYTFGQGTKLEIK	ratio of amounts bound (Z=Y/X)	0.63

Query (binder): GLS3000 V94P (antibody, name in Kabat numbering, V domains shown, one-arm IgG as m2) VH: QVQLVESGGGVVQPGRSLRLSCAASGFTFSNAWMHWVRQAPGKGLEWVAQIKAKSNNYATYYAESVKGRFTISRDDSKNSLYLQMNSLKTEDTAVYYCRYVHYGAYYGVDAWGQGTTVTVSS VL: DIVMTQSPLSLPVTPGEPASISCRSSQSLVHSNRNTYLHWYQQKPGQAPRLLIYKVSNRFSGVPDRFSGSGSGTDFTLKISRVEAEDVGVYYCGQGTQPPYTFGQGTKLEIK ; field requested: ratio of amounts bound (Z=Y/X)
1.26

Same read-out for GLS3000 V94S (antibody, name in Kabat numbering, V domains shown, one-arm IgG as m2) VH: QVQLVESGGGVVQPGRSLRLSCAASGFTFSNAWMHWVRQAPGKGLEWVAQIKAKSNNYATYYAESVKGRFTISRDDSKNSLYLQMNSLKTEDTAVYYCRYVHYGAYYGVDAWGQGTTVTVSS VL: DIVMTQSPLSLPVTPGEPASISCRSSQSLVHSNRNTYLHWYQQKPGQAPRLLIYKVSNRFSGVPDRFSGSGSGTDFTLKISRVEAEDVGVYYCGQGTQSPYTFGQGTKLEIK ?
0.93
